# run.description: Phase 1 Part 1a: single rising oral doses, fasted, plasma pharmacokinetics
# Type: in vivo, human
# condition.description: male, human, plasma, po, 20 mg, single oral dose 20 mg, fasted, healthy male subjects, plasma, arithmetic mean; read-out: t1/2 (converted)

chemical.string: CC(=O)Nc1nnc(N2CCN([C@@H](C)c3ccc4c(c3)OCO4)CC2)s1
half-life / h: 4.59

* * *

# run.description: Phase 1 Part 2: multiple BID doses for 12 days, plasma pharmacokinetics
# Assay type: in vivo, human
# condition.description: both sexes, human, plasma, oral, 100 mg, 100 mg BID, Day 1 (first dose), elderly subjects, plasma, median (min, max)

molecule: CC(=O)Nc1nnc(N2CCN([C@@H](C)c3ccc4c(c3)OCO4)CC2)s1 [Compound (I)]
Tmax: 45 min

* * *

# run.description: Phase 1 Part 2: multiple BID doses for 12 days, plasma pharmacokinetics
# Type: in vivo, human
# condition.description: both sexes, human, plasma, oral, 500 mg, 500 mg BID, Day 1, elderly subjects, plasma, N=1; read-out: t1/2 (converted)

chemical.string: CC(=O)Nc1nnc(N2CCN([C@@H](C)c3ccc4c(c3)OCO4)CC2)s1
half-life: 6.19 h

* * *

# run.description: Phase 1 Part 1b: food effect, single 300 mg dose fasted/fed, plasma pharmacokinetics
# Format: in vivo, human
# condition.description: human, plasma, po, single oral dose 300 mg, fasted condition, healthy elderly subjects, arithmetic mean

chemical.string: CC(=O)Nc1nnc(N2CCN([C@@H](C)c3ccc4c(c3)OCO4)CC2)s1
measure.unit: ng·h/mL
AUC(0-inf): 17100

* * *

# run.description: Phase 1 Part 1a: single rising oral doses, fasted, plasma pharmacokinetics
# Format: in vivo, human
# condition.description: human; single oral dose 600 mg, fasted, healthy male subjects, plasma, arithmetic mean

compound: CC(=O)Nc1nnc(N2CCN([C@@H](C)c3ccc4c(c3)OCO4)CC2)s1 [Compound (I)]
AUC(0-inf) [ng·h/mL]: 33300

* * *

# run.description: Phase 1 Part 2: cerebrospinal fluid (CSF) pharmacokinetics after multiple BID doses
# Format: in vivo, human
# condition.description: both sexes, human, oral; CSF, 100 to 500 mg BID; read-out: terminal half-life (t½), range of means

chemical.string: CC(=O)Nc1nnc(N2CCN([C@@H](C)c3ccc4c(c3)OCO4)CC2)s1
half-life: 3.9 to 10.7 h

* * *

# run.description: Phase 1 Part 2: multiple BID doses for 12 days, plasma pharmacokinetics
# Format: in vivo, human
# condition.description: both sexes, human, plasma, oral, 500 mg, 500 mg BID, Day 1, tau 12 h, elderly subjects, plasma, arithmetic mean; read-out: AUC0-tau
endpoint.label: AUC (ng·h/mL)

compound: CC(=O)Nc1nnc(N2CCN([C@@H](C)c3ccc4c(c3)OCO4)CC2)s1 [Compound (I)]
endpoint.label: AUC
measured.value: 24300

* * *

# run.description: Phase 1 Part 2: multiple BID doses for 12 days, plasma pharmacokinetics
# Assay type: in vivo, human
# condition.description: both sexes, human, plasma, oral, 100 mg, 100 mg BID, Day 12, tau 12 h, elderly subjects, plasma, arithmetic mean; read-out: AUC0-tau
# Procedure: The study was a single-centre, randomized, placebo-controlled single- and multiple ascending dose study in healthy male and female (no childbearing potential) volunteers aged 18-80 years. Study objectives were safety, tolerability, food effect and pharmacokinetics. […] Furthermore, multiple-dose safety, tolerability, pharmacokinetics, CSF drug levels and pharmacodynamics were assessed in elderly (age 55-80 years) male or healthy non-child-bearing potential female volunteers. […]

chemical.string: CC(=O)Nc1nnc(N2CCN([C@@H](C)c3ccc4c(c3)OCO4)CC2)s1
measure.unit: ng·h/mL
AUC: 5440

* * *

# run.description: Phase 1 Part 2: multiple BID doses for 12 days, plasma pharmacokinetics
# Type: in vivo, human
# condition.description: both sexes, human, in vivo; 250 mg BID, Day 12, elderly subjects, plasma, arithmetic mean; read-out: Cmin

chemical.string: CC(=O)Nc1nnc(N2CCN([C@@H](C)c3ccc4c(c3)OCO4)CC2)s1
concentration at 12 day [ng/mL]: 308

* * *

# run.description: Phase 1 Part 1a: single rising oral doses, fasted, plasma pharmacokinetics
# Type: in vivo, human
# condition.description: male, human, plasma, po, 40 mg, single oral dose 40 mg, fasted, healthy male subjects, plasma, arithmetic mean; read-out: t1/2 (converted)

chemical.string: CC(=O)Nc1nnc(N2CCN([C@@H](C)c3ccc4c(c3)OCO4)CC2)s1
half-life: 5.95 h

* * *

# run.description: Phase 1 Part 2: multiple BID doses for 12 days, plasma pharmacokinetics
# Type: in vivo, human
# condition.description: both sexes, human, plasma, oral, 250 mg, 250 mg BID, Day 1 (first dose), elderly subjects, plasma, median (min, max)
# Method: The study was a single-centre, randomized, placebo-controlled single- and multiple ascending dose study in healthy male and female (no childbearing potential) volunteers aged 18-80 years. Study objectives were safety, tolerability, food effect and pharmacokinetics. […] Furthermore, multiple-dose safety, tolerability, pharmacokinetics, CSF drug levels and pharmacodynamics were assessed in elderly (age 55-80 years) male or healthy non-child-bearing potential female volunteers. […]

chemical.string: CC(=O)Nc1nnc(N2CCN([C@@H](C)c3ccc4c(c3)OCO4)CC2)s1
measure.unit: min
Tmax: 30

* * *

# run.description: Phase 1 Part 2: multiple BID doses for 12 days, plasma pharmacokinetics
# Type: in vivo, human
# condition.description: both sexes, human, plasma, oral, 500 mg, 500 mg BID, Day 12, elderly subjects, plasma, median (min, max)

chemical.string: CC(=O)Nc1nnc(N2CCN([C@@H](C)c3ccc4c(c3)OCO4)CC2)s1
Tmax / h: 1.5

* * *

# run.description: Phase 1 Part 2: multiple BID doses for 12 days, plasma pharmacokinetics
# Format: in vivo, human
# condition.description: both sexes, human, plasma, oral, 100 to 500 mg BID, single dose and multiple dose conditions, plasma; read-out: terminal half-life (t½), range of means
endpoint.label: half-life

molecule: CC(=O)Nc1nnc(N2CCN([C@@H](C)c3ccc4c(c3)OCO4)CC2)s1 [Compound (I)]
endpoint.label: half-life
measured.value: 3.9 to 10.7 h

* * *

# run.description: Phase 1 Part 2: multiple BID doses for 12 days, plasma pharmacokinetics
# Assay type: in vivo, human
# condition.description: both sexes, human, plasma, oral, 100 mg, 100 mg BID, Day 1 (first dose), elderly subjects, plasma, arithmetic mean

chemical.string: CC(=O)Nc1nnc(N2CCN([C@@H](C)c3ccc4c(c3)OCO4)CC2)s1
Cmax: 1450 ng/mL

* * *

# run.description: Phase 1 Part 1a: single rising oral doses, fasted, plasma pharmacokinetics
# Type: in vivo, human
# condition.description: human; single oral dose 80 mg, fasted, healthy male subjects, plasma, arithmetic mean

compound: CC(=O)Nc1nnc(N2CCN([C@@H](C)c3ccc4c(c3)OCO4)CC2)s1 [Compound (I)]
Cmax (ng/mL): 1370

* * *

# run.description: Phase 1 Part 1a: single rising oral doses, fasted, plasma pharmacokinetics
# Type: in vivo, human
# condition.description: human; single oral dose 1000 mg, fasted, healthy male subjects, plasma, arithmetic mean
endpoint.label: AUC(0-inf) (µg·h/mL)

chemical.string: CC(=O)Nc1nnc(N2CCN([C@@H](C)c3ccc4c(c3)OCO4)CC2)s1
endpoint.label: AUC(0-inf)
measured.value: 50.2

* * *

# run.description: Phase 1 Part 1a: single rising oral doses, fasted, plasma pharmacokinetics
# Type: in vivo, human
# condition.description: male, human, plasma, po, 160 mg, single oral dose 160 mg, fasted, healthy male subjects, plasma, arithmetic mean; read-out: t1/2 (converted)

compound: CC(=O)Nc1nnc(N2CCN([C@@H](C)c3ccc4c(c3)OCO4)CC2)s1 [Compound (I)]
measure.unit: h
half-life: 6.83

* * *

# run.description: Phase 1 Part 2: multiple BID doses for 12 days, plasma pharmacokinetics
# Assay type: in vivo, human
# condition.description: both sexes, human, plasma, oral, 500 mg, 500 mg BID, Day 1 (first dose), elderly subjects, plasma, arithmetic mean
# Method: The study was a single-centre, randomized, placebo-controlled single- and multiple ascending dose study in healthy male and female (no childbearing potential) volunteers aged 18-80 years. Study objectives were safety, tolerability, food effect and pharmacokinetics. […] Furthermore, multiple-dose safety, tolerability, pharmacokinetics, CSF drug levels and pharmacodynamics were assessed in elderly (age 55-80 years) male or healthy non-child-bearing potential female volunteers. […]
endpoint.label: Cmax (ng/mL)

molecule: CC(=O)Nc1nnc(N2CCN([C@@H](C)c3ccc4c(c3)OCO4)CC2)s1 [Compound (I)]
measure.unit: ng/mL
measured.value: 6440

* * *

# run.description: Phase 1 Part 1a: single rising oral doses, fasted, plasma pharmacokinetics
# Format: in vivo, human
# condition.description: male, human, plasma, po, 300 mg, single oral dose 300 mg, fasted, healthy male subjects, plasma, arithmetic mean; read-out: t1/2 (converted)

chemical.string: CC(=O)Nc1nnc(N2CCN([C@@H](C)c3ccc4c(c3)OCO4)CC2)s1
half-life (h): 7.95

* * *

# run.description: Phase 1 Part 1b: food effect, single 300 mg dose fasted/fed, plasma pharmacokinetics
# Assay type: in vivo, human
# condition.description: human, plasma, oral, fasted condition, read-out: median Tmax
# Method: The study was a single-centre, randomized, placebo-controlled single- and multiple ascending dose study in healthy male and female (no childbearing potential) volunteers aged 18-80 years. Study objectives were safety, tolerability, food effect and pharmacokinetics. […] Furthermore, multiple-dose safety, tolerability, pharmacokinetics, CSF drug levels and pharmacodynamics were assessed in elderly (age 55-80 years) male or healthy non-child-bearing potential female volunteers. […]
endpoint.label: Tmax (h)

chemical.string: CC(=O)Nc1nnc(N2CCN([C@@H](C)c3ccc4c(c3)OCO4)CC2)s1
measured.value: 1
